FYI, the data here is from ChEMBL document CHEMBL1201862.

- System: NCI/ADR-RES
- ASSAY: NCI tumour cell line growth inhibition, 48 h
Active and inactive are the calls of the source. Cut-off read from the data, not from the text of the source: active = GI50 up to about 1.1 µM and inactive = higher.
# valid calls are Y for active, N for inactive; nothing else

COMPOUND: COc1c(-c2nc3ccc(N4CCN(C)CC4)nc3[nH]2)cc(OC)c2c1nc(CO)n2C
CAT: N
//
COMPOUND: CC1CCCCCC(=O)c2c(O)cc(O)cc2CC(=O)O1 (stereo not given)
CAT: N
//
COMPOUND: N=C(/C=C/c1ccc(-c2cn3cc(/C=C/C(=N)N4CCCC4)ccc3n2)cc1)N1CCCC1
CAT: N
//
COMPOUND: Sc1nc(S)nc(Oc2ccc(Cl)c(Cl)c2)n1
CAT: N
//
COMPOUND: Cc1cc(-c2no[n+]([O-])c2-c2cc(C)sc2S(C)(=O)=O)c(S(C)(=O)=O)s1
CAT: N

Next, consider the following compound.
Returns: the outcome recorded for Cc1ccc2c(c1)C=CC1(O2)N(c2ccccc2)C(=S)OC1(C)C (stereo not given) in this assay.
N
